Biological target: T1, mature recombinant human GDF-15 H202D variant with an N-terminal Flag and His tag, biotinylated (human, UniProt Q99988 197-308, chemically biotinylated with EZ link Sulfo-NHS-LC-Biotin, sites not stated)
T1 construct: also called Human H202D; not shown: N-terminal Flag and His tags
T1 chain: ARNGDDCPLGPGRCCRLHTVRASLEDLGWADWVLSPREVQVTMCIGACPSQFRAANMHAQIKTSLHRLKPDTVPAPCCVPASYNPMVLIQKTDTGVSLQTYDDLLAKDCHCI
Assay: SPR Biacore 8K, 25 C, biotinylated GDF-15 on streptavidin C1 chip, Fab as analyte
Reported Property: kon (M⁻¹ s⁻¹)

- AB1520085 Fab (Fab, V domains shown, Fab of the anti-mouse GDF-15 mouse IgG1, expressed as in Spooner et al. 2015) VH: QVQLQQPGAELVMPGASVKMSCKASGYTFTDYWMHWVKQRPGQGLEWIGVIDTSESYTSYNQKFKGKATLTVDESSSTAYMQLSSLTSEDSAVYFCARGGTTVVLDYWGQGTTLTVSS VL: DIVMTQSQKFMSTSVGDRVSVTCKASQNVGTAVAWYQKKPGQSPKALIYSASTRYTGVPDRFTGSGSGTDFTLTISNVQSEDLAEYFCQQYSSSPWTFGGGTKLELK: 2.92e+06
- AB1170243 Fab (Fab, V domains shown, Fab of the humanized antibody, expressed as in Spooner et al. 2015) VH: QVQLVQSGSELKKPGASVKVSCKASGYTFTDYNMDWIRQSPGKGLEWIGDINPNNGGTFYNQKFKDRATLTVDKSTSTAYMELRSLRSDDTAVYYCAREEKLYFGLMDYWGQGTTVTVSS VL: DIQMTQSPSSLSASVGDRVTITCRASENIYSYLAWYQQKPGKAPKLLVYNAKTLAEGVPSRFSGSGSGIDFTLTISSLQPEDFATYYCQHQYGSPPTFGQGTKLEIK: 4.85e+06
- AB1170245 Fab (Fab, V domains shown, Fab of the humanized antibody, expressed as in Spooner et al. 2015) VH: EVQLVESGGGLVKPGGSLRLSCAASGFTFSSYAMSWVRQAPGKGLEWVAYISSGGDYIYYADTVKGRFTISRDNSKNTLYLQMNSLKTEDTAVYYCTRALVDNAYFDYWGQGTTVTVSS VL: DIVLTQSPDSLAVSLGERATINCRASKSVSTSSYSYMHWYQQKPGQPPKLLIKYASYLEFGVPSRFSGSGSGTDFTLTISSLQPEDVATYYCQHSREFPWTFGGGTKVEIK: 3.07e+06
